# Target or test system: Glc(a1-4)Glc
# Assay protocol: glycan array binding signal (z-score within array); higher = stronger binding
# Run parameters: glycan notation: IUPAC condensed, linker removed
This is one part of a sample in which the strongest signals are shown more often than they occur.
Quantity kind: glycan array binding signal (z-score)
# respond with the number and nothing more

# glycan array binding signal (z-score) (binder: CALR truncated at D342 (Homo sapiens) (protein) EPAVYFKEQFLDGDGWTSRWIESKHKSDFGKFVLSSGKFYGDEEKDKGLQTSQDARFYALSASFEPFSNKGQTLVVQFTVKHEQNIDCGGGYVKLFPNSLDQTDMHGDSEYNIMFGPDICGPGTKKVHVIFNYKGKNVLINKDIRCKDDEFTHLYTLIVRPDNTYEVKIDNSQVESGSLEDDWDFLPPKKIKDPDASKPEDWDERAKIDDPTDSKPEDWDKPEHIPDPDAKKPEDWDEEMDGEWEPPVIQNPEYKGEWKPRQIDNPDYKGTWIHPEIDNPEYSPDPSIYAYDNFGVLGLDLWQVKSGTIFDNFLITNDEAYAEEFGNETWGVTKAAEKQMKD ) is -0.124
